TARGET_SYSTEM: purified recombinant human p38 alpha MAPK (Homo sapiens)
Construct: purchased Millipore, USA
PROTOCOL_DETAILS: Inhibition of p38 alpha MAPK activity, TR-FRET kinase assay
Format: biochemical
EXPERIMENTAL_PARAMETERS: Concentration 1 μM; read-out: P38α Inhibition
Protocol: Inhibition of p38 Alpha MAPK Activity: Time-Resolved Fluorescence Resonance Energy Transfer Kinase Standard Assay (TR-FRET Assay) Compounds of present invention at various concentrations were premixed with DMSO. […] The degree of phosphorylation of the substrate (GST-ATF2) was measured using Envision multimode reader (PerkinElmer®). Percentage inhibition of p38 kinase activity was calculated by determining ratio of specific europium 665 nm energy transfer signal to reference 615 nm signal.
Known inhibition at 1 µM of a selection of molecules

CHEMICAL_STRUCTURE: CC(C)(C)c1cc(NC(=O)Nc2ccc(OCCN3CCn4c(nnc4C4CCCCC4)C3)c3c2CCC3)n(-c2ccc(O)c(Cl)c2)n1
RECORDED_ENDPOINT: inhibition at 1 µM
DATA_VALUE: 20 to 40%
//
CHEMICAL_STRUCTURE: CC(=O)Nc1cc2c(s1)CCN(C(=O)COc1ccc(NC(=O)Nc3cc(C(C)(C)C)nn3-c3ccc(C4CCCCC4)cc3)c3c1CCC3)C2
RECORDED_ENDPOINT: inhibition at 1 µM
DATA_VALUE: < 20%
//
CHEMICAL_STRUCTURE: Cc1ccc(-n2nc(C(C)(C)C)cc2NC(=O)Nc2ccc(OCCN3CCn4c(nnc4-c4cccc5ccccc45)C3)c3c2CCC3)cc1
RECORDED_ENDPOINT: inhibition at 1 µM
DATA_VALUE: 60 to 80%
//
CHEMICAL_STRUCTURE: Cc1ccc(-n2nc(C(C)(C)C)cc2NC(=O)Nc2ccc(OCCN3CCn4c(nnc4-c4cccc(Cl)c4O)C3)c3c2CCC3)cc1
RECORDED_ENDPOINT: inhibition at 1 µM
DATA_VALUE: 80 to 100%
//
CHEMICAL_STRUCTURE: Cc1ccc(-n2nc(C(C)(C)C)cc2NC(=O)Nc2ccc(OCCN3CCn4c(nnc4-c4ccc(O)c(Cl)c4)C3)c3c2CCC3)cc1
RECORDED_ENDPOINT: inhibition at 1 µM
DATA_VALUE: 80 to 100%

We next turn to a different molecule, shown below.
Lab note: Cc1ccc(-n2nc(C(C)(C)C)cc2NC(=O)Nc2ccc(OCCN3CCN(CC4CCCC4)C(=O)C3)c3c2CCC3)cc1 gave inhibition at 1 µM of 80 to 100%

----------
TARGET_SYSTEM: purified recombinant human p38 alpha MAPK (Homo sapiens, UniProt Q16539)
Construct: purchased Millipore, USA
Sequence (Q16539 whole entry): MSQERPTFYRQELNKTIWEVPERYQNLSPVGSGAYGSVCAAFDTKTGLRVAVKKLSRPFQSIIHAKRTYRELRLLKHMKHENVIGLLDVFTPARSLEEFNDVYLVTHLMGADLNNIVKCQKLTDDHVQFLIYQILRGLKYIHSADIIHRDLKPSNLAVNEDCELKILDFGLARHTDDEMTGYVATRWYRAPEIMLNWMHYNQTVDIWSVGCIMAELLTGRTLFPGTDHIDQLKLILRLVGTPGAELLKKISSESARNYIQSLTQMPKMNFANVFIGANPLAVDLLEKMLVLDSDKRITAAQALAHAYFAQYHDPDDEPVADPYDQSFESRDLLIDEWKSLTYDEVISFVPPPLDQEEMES
PROTOCOL_DETAILS: Inhibition of p38 alpha MAPK activity, TR-FRET kinase assay
Type: biochemical
EXPERIMENTAL_PARAMETERS: Concentration 1 μM; read-out: P38α Inhibition
Known inhibition at 1 µM of a selection of compounds

A selection of reference data follows.
COMPOUND: COc1c(NC(=O)Nc2ccc(OCCN3CCn4c(nnc4-c4ccccc4O)C3)c3c2CCC3)cc(C(C)(C)C)cc1NS(C)(=O)=O [Compound 40]
inhibition at 1 µM: 80 to 100%
//
COMPOUND: COc1c(NC(=O)Nc2ccc(OCCN3CCn4c(nnc4-c4cc(Cl)ccc4O)C3)c3c2CCC3)cc(C(C)(C)C)cc1NS(C)(=O)=O [Compound 48]
inhibition at 1 µM: 80 to 100%
//
COMPOUND: Cc1ccc(-n2nc(C(C)(C)C)cc2NC(=O)Nc2ccc(OCC(=O)N3CCn4c(nnc4C(F)(F)F)C3)c3c2CCC3)cc1 [Compound 1]
inhibition at 1 µM: 80 to 100%

Per the reported purified recombinant human p38 alpha MAPK (Homo sapiens, UniProt Q16539) data, CSc1ccccc1-c1nnc2n1CCN(C(=O)COc1ccc(NC(=O)Nc3cc(C(C)(C)C)nn3-c3ccc(O)c(Cl)c3)c3c1CCC3)C2 [Compound 9] has inhibition at 1 µM of 80 to 100%

Per the reported purified recombinant human p38 alpha MAPK (Homo sapiens, UniProt Q16539) data, CCS(=O)(=O)Nc1cc(C(C)(C)C)cc(NC(=O)Nc2ccc(OCCN3CCN(CC4CC4)C(=O)C3)c3c2CCC3)c1OC [Compound 43] has inhibition at 1 µM of 80 to 100%

Per the reported purified recombinant human p38 alpha MAPK (Homo sapiens, UniProt Q16539) data, CC(C)(C)c1cc(NC(=O)Nc2ccc(OCCN3CCN(CC4CC4)C(=O)C3)c3c2CCC3)n(-c2ccccc2)n1 [Compound 61] has inhibition at 1 µM of 60 to 80%

Per the reported purified recombinant human p38 alpha MAPK (Homo sapiens, UniProt Q16539) data, Cc1ccc(-n2nc(C(C)(C)C)cc2NC(=O)Nc2ccc(OCC(=O)N3CCn4c(nnc4C(F)(F)F)C3)c3c2CCC3)cc1Cl [Compound 56] has inhibition at 1 µM of 40 to 60%

Per the reported purified recombinant human p38 alpha MAPK (Homo sapiens, UniProt Q16539) data, CC(C)(C)c1cc(NC(=O)Nc2ccc(OCCN3CCn4c(nnc4-c4ccccc4O)C3)c3c2CCC3)n(-c2ccc(O)c(Cl)c2)n1 [Compound 26] has inhibition at 1 µM of 80 to 100%

Per the reported purified recombinant human p38 alpha MAPK (Homo sapiens, UniProt Q16539) data, CC(C)(C)c1cc(NC(=O)Nc2ccc(OCC(=O)N3CCn4c(nnc4C(F)(F)F)C3)c3c2CCC3)n(-c2ccccc2)n1 [Compound 4] has inhibition at 1 µM of 60 to 80%

Per the reported purified recombinant human p38 alpha MAPK (Homo sapiens, UniProt Q16539) data, CCCCOc1ccccc1-c1nnc2n1CCN(CCOc1ccc(NC(=O)Nc3cc(C(C)(C)C)nn3-c3ccc(C)cc3)c3c1CCC3)C2 [Compound 32] has inhibition at 1 µM of 80 to 100%

Per the reported purified recombinant human p38 alpha MAPK (Homo sapiens, UniProt Q16539) data, CCCN1CCN(CCOc2ccc(NC(=O)Nc3cc(C(C)(C)C)nn3-c3ccc(C)cc3)c3c2CCC3)CC1=O [Compound 59] has inhibition at 1 µM of 60 to 80%

Per the reported purified recombinant human p38 alpha MAPK (Homo sapiens, UniProt Q16539) data, CC(C)(C)c1cc(NC(=O)Nc2ccc(OCC(=O)N3CCn4c(nnc4-c4ccccc4SCCN4CCOCC4)C3)c3c2CCC3)n(-c2ccccc2)n1 [Compound 11] has inhibition at 1 µM of 80 to 100%

----------
TARGET_SYSTEM: purified recombinant human p38 alpha MAPK (Homo sapiens, UniProt Q16539)
Construct: purchased Millipore, USA
PROTOCOL_DETAILS: Inhibition of p38 alpha MAPK activity, TR-FRET kinase assay
Type: biochemical
EXPERIMENTAL_PARAMETERS: Concentration 100 nM; read-out: P38α Inhibition
RECORDED_ENDPOINT: inhibition at 0.1 µM

A selection of reference data follows.
COMPOUND: COc1c(NC(=O)Nc2ccc(OCCN3CCn4c(nnc4-c4cccc(O)c4)C3)c3c2CCC3)cc(C(C)(C)C)cc1NS(C)(=O)=O [Compound 46]
inhibition at 0.1 µM: 60 to 80%
//
COMPOUND: COc1c(NC(=O)Nc2ccc(OCCN3CCn4c(nnc4-c4ccc(SCCO)cc4)C3)c3c2CCC3)cc(C(C)(C)C)cc1NS(C)(=O)=O [Compound 47]
inhibition at 0.1 µM: 60 to 80%
//
COMPOUND: CC(C)(C)c1cc(NC(=O)Nc2ccc(OCCN3CCn4c(nnc4-c4ccc(O)cc4O)C3)c3c2CCC3)n(-c2ccc(O)c(Cl)c2)n1 [Compound 63]
inhibition at 0.1 µM: 60 to 80%

Lab note: CCS(=O)(=O)Nc1cc(C(C)(C)C)cc(NC(=O)Nc2ccc(OCCN3CCn4c(nnc4-c4ccccc4SC)C3)c3c2CCC3)c1OC [Compound 45] gave inhibition at 0.1 µM of 80 to 100%

----------
Known inhibition at 1 µM of a selection of compounds
TARGET_SYSTEM: purified recombinant human p38 alpha MAPK (Homo sapiens)
Construct: purchased Millipore, USA
PROTOCOL_DETAILS: Inhibition of p38 alpha MAPK activity, TR-FRET kinase assay
Assay type: biochemical
EXPERIMENTAL_PARAMETERS: Concentration 1 μM; read-out: P38α Inhibition

A selection of reference data follows.
CHEMICAL_STRUCTURE: CC(C)(C)c1cc(NC(=O)Nc2ccc(OCC(=O)N3CCn4c(nnc4C(F)(F)F)C3)c3c2CCC3)n(-c2ccc(C3CCCCC3)cc2)n1
inhibition at 1 µM: 20 to 40%
//
CHEMICAL_STRUCTURE: Cc1ccc(-n2nc(C(C)(C)C)cc2NC(=O)Nc2ccc(OCCN3CCn4c(nnc4-c4ccc(O)cc4O)C3)c3c2CCC3)cc1
inhibition at 1 µM: 80 to 100%
//
CHEMICAL_STRUCTURE: Cc1ccc(-n2nc(C(C)(C)C)cc2NC(=O)Nc2ccc(OCCN3CCn4c(nnc4-c4oc5ccccc5c4C)C3)c3c2CCC3)cc1
inhibition at 1 µM: 40 to 60%
//
CHEMICAL_STRUCTURE: Cc1ccc(-n2nc(C(C)(C)C)cc2NC(=O)Nc2ccc(OCCN3CCN(CC4CCC4)C(=O)C3)c3c2CCC3)cc1
inhibition at 1 µM: 80 to 100%
//
CHEMICAL_STRUCTURE: CCCSc1ccccc1-c1nnc2n1CCN(CCOc1ccc(NC(=O)Nc3cc(C(C)(C)C)nn3-c3ccc(C)cc3)c3c1CCC3)C2
inhibition at 1 µM: 80 to 100%

Lab note: Cc1ccc(-n2nc(C(C)(C)C)cc2NC(=O)Nc2ccc(OCCCN3CCN(CC4CC4)C(=O)C3)c3c2CCC3)cc1 gave inhibition at 1 µM of 80 to 100%

Lab note: Cc1ccc(-n2nc(C(C)(C)C)cc2NC(=O)Nc2ccc(OCCN3CCN(Cc4ccccc4)C(=O)C3)c3c2CCC3)cc1 gave inhibition at 1 µM of 80 to 100%

Lab note: Cc1ccc(-n2nc(C(C)(C)C)cc2NC(=O)Nc2ccc(OCCN3CCn4c(nnc4-c4ccccc4OCCN4CCOCC4)C3)c3c2CCC3)cc1 gave inhibition at 1 µM of 80 to 100%

Lab note: Cc1ccc(-n2nc(C(C)(C)C)cc2NC(=O)Nc2ccc(OCCN3CCn4c(nnc4-c4ccccc4O)C3)c3c2CCC3)cc1 gave inhibition at 1 µM of 80 to 100%

Lab note: Cc1ccc(-n2nc(C(C)(C)C)cc2NC(=O)Nc2ccc(OCCN3CCN(CC4CC4)C(=O)C3)c3c2CCC3)cc1 gave inhibition at 1 µM of 80 to 100%
